Some molecules, each annotated with its measured T/C.
# Tested on: L1210 leukemia ip in BDF1 mice, survival T/C
# assay-protocol: NCI In Vivo Anticancer Drug Screen. Data for tumor model L1210 Leukemia (intraperitoneal) in B6D2F1 (BDF1) mice
# study-conditions: endpoint: mean survival time; dose: 12.5 mg/kg/injection; schedule: Q04DX003 (ip); vehicle: Klucel (hydroxypropylcellulose) (HPC); higher = longer survival
Toxic doses and inconclusive results are not listed.

NC(N)=N/N=C/c1cccc2ccccc12; 100 % of control
CN(NC(=O)c1ccccc1)C(=O)c1ccccc1; 106 % of control
O=[N+]([O-])c1cc(S(=O)(=O)OCC2CO2)ccc1Cl (centres undefined); 98 % of control

Now for the molecule whose T/C we want.
Problem: Fill in the blank: the reported T/C of NC(=O)C(=O)NCCCCN1CC1 is ____.
Solution: 97 % of control
